Cited source: patent US20250027068

target: pooled human IgG (human IgG1, 2, 3 and 4)
parameter: Enzyme Activity Endpoint Assay (purified): Fab′2
Kindly report the value followed by its unit.

A selection of reference data follows.
protein	measurement
PRT-373 (protein) MSQTEDSESLQRLRDIEDFQAEKEKQNVVYTKWLDGVDVKDHDFRKIVDGNSAYYATPLLNGRGWYDINKDFNRDNDKCAAAVAANMFHYWLDRNRDNVDRFLRQNPEKHGIIELPDGQLKLSDFLNTYESDDGYRDKSKLFDFISENFNGPVWTDKLLDNYINGYAYNSKYGRTIEDSTKNTSKINFFKEVFNEKILTNNHSIRNQNEFSVLLIEALYTGKAIGLSYGPAGLRHGLGHIISVWGADLDADGNVVAIYVTDSDDKKLTIGDERVGLKRYKISTDDEGRLRLTAYEETHNTGGQVRGLWTLDTGKQAWADYFDKTEQTGTDQAEQ	392 ng/µL
PRT-391 (protein) MVTSVWTKGVTPPTNFTYGEDVLHAPYVANQGWYDITKTFNGKDDLLCGAATAGNMLHWWFDQNKEQIENYLKKHPEKQKINFNGEQMFDVKEAIDTKDSQLDSKLFEYFKEKAFPYLSTKHLGVFPDHVIDMFINGYRLSLTNHGPTPVKRGSKDKRGGIFDAVFTRGDQSKLLTNRHDFKEKTLKEISDLIKQELTEGKALGISHTYANVRINHVINLWGADFDAEGNLEAIYVTDSDSNASIGMKKYFVGVNSNGKVAISAKEIEEDNIGAQVLGLFTLSTGQDIWNQTN	498 ng/µL
PRT-657 (protein) MQITSVWTKGVTPLTPEQFRYNNEDVIHAPYLAHQGWYDITKAFDGKDNLLCGAATAGNMLHWWFDQNKTEIEAYLSKHPEKQKIIFNNQELFDLREAINTKDSQTDSKLFNYFRDKAFPNLSARQLGVMPDLVLDMFINGYYLNVFKTQSTDVNRPYQDKDKRGGIFDAVFTRGDQTTLLTARHDLKNKGLNDISTIIKQELTEGRALALSHTYANVSISHVINLWGADFNAEGNLEAIYVTDSDANASIGMKKYFVGINAHGHVAISAKKIEGENIGAQVLGLFTLSSGKDIWQKLSLEHHHHHH	430 ng/µL

Asked: Return reported Enzyme Activity Endpoint Assay (purified): Fab′2. Input protein: PRT-687 (protein) MQITSVWTKGVTPLTPEQFRYNNEDVIHAPYKPHQGWYDITKTFNGKDNLLCGAATAGNMLHWWFDQNKTEIEAYLKKYPEKQKIIFNNQKLFDLRKAINTKDSQTNSALFNYFRDKAFPNLSARQLGVMPDLVLDMFINGYYLNVFKTQSTDVNRPYQTRDKRGGIFDHVFGRGDQTTLLTARHDLKNKTLNEISQIIKQELSEGKALALSHTYANVSISHVINLWGADFNAEGNLEAIYVTDSDANAKIGMKKYYVGKNAHGKVAISAKKIEGENIGAQVLGLFTLSSGKDIWQKLSLEHHHHHH
Given back: 738 ng/µL
